# measuredTarget: Cytochrome P450 2D6 (Homo sapiens)
# protocolDescription: Cytochrome panel assay with activity outcomes
# assaySetup: recombinant CYP, pro-luciferin dealkylation, luminescence, p450-cyp2d6; series mostly up to 57.1 µM
# Description: The P450 gene superfamily is involved in the metabolism and clearance of xenobiotics. This assay used various human CYP P450 isozymes to measure the dealkylation of various pro-luciferin substrates to luciferin. The luciferin is then measured by luminescence after the addition of a luciferase detection reagent. […] Inhibitors and some substrates limit the production of luciferin, and decrease measured luminescence. […] 8, Detection, 1 sec, ViewLux luminescent read […]
About 2,600 (16%) of roughly 16,000 compounds were called active. About 20% were inconclusive and are not listed. A selection follows.
parameter: AC50

Take a look at these entries with their results.
compound | measuredTarget | obsValue
Cc1ccccc1C(=O)N1CCN(c2ccc([N+](=O)[O-])c(N3CCOCC3)c2)CC1 | Cytochrome P450 2D6 (Homo sapiens) | inactive
COc1ccc(-n2c(CNC(=O)c3ccc(S(=O)(=O)N4CCCC4)cc3)n[nH]c2=S)cc1 | Cytochrome P450 2D6 (Homo sapiens) | inactive
COc1ccc(S(N)(=O)=O)cc1C(=O)NCCCN1CCN(c2cccc(Cl)c2)CC1 | Cytochrome P450 2D6 (Homo sapiens) | inactive
COc1ccc(C2C(C(=O)N3CCN(C)CC3)c3ccccc3C(=O)N2C2CCCCC2)cc1 (stereo not given) | Cytochrome P450 2D6 (Homo sapiens) | inactive
CN1CCN(c2nc(-c3ccoc3)nc3ccccc23)CC1 | Cytochrome P450 2D6 (Homo sapiens) | 15.8 µM (active)
c1cncc(-c2nc(N3CCNCC3)c3ccccc3n2)c1 | Cytochrome P450 2D6 (Homo sapiens) | 7.94 µM (active)
CS(=O)(=O)N1CCN(c2ccc([N+](=O)[O-])c(NCc3ccccc3)c2)CC1 | Cytochrome P450 2D6 (Homo sapiens) | inactive
CN1CCN(c2nc(-c3cccnc3)nc3ccccc23)CC1 | Cytochrome P450 2D6 (Homo sapiens) | 10 µM (active)

Query string: Given the entry COc1ccc2cc3cc(C(=O)NCCCN4CCOCC4)oc3nc2c1 , report its measured AC50.
Result string: inactive

Query string: Given the entry COc1ccc(-c2nc3cnc(Nc4cccc(OC)c4)nc3n(CCC#N)c2=O)cc1 , report its measured AC50.
Result string: inactive

* * *

# measuredTarget: Cytochrome P450 2D6 (Homo sapiens) (UniProt P10635)
# Sequence (P10635 whole entry, looked up): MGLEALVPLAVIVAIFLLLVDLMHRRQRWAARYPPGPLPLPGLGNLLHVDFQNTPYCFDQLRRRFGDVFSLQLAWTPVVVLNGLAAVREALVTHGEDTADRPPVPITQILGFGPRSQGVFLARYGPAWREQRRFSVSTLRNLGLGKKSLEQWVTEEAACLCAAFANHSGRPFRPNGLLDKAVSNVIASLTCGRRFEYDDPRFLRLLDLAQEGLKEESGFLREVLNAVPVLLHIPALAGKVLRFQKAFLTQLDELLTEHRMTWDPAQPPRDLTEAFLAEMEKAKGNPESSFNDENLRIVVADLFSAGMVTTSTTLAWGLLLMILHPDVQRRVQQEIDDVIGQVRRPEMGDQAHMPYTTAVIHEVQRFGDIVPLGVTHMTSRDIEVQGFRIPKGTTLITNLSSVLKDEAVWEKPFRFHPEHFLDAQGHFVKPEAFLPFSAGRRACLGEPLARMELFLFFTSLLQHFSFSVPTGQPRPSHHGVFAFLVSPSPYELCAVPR
# protocolDescription: Cytochrome panel assay with activity outcomes
# assaySetup: recombinant CYP, pro-luciferin dealkylation, luminescence, p450-cyp2d6; series mostly up to 57.1 µM
The whole screen tested about 16,000 compounds, of which about 2,600 (16%) were called active. Not shown: some 20% with an inconclusive outcome. Calls follow the shape of the dose curve; as a rule, active = well fitted curve in the direction sought with a large enough effect; inconclusive = small, poorly fitted or top-dose-only effect, or effect the other way; inactive = no such curve, though single readings can be large or run the other way. The list is a sample of the results.
Respond with a class label; see active, inactive

Query string: Check the results log: what was the call for O=C(CCn1nc(-c2ccc(Cl)cc2)ccc1=O)N1CCOCC1 ?
Result string: inactive

Query string: Check the results log: what was the call for COc1ccc(Cc2nnc(NC(=O)c3ccc(Cl)c([N+](=O)[O-])c3)s2)cc1 ?
Result string: inactive

Query string: Check the results log: what was the call for COc1cccc(-c2ccc3ncnc(NCCc4c[nH]c5ccc(OC)cc45)c3c2)c1 ?
Result string: active

Query string: Check the results log: what was the call for Cc1ccc(C)c(N(CC(=O)NC2CCCC2)C(=O)c2cc3cc4cccc(C)c4nc3s2)c1 ?
Result string: inactive

Query string: Check the results log: what was the call for CC(NC(=O)C1(C)CC1(Br)Br)C(C)(C)C (stereo not drawn) ?
Result string: inactive

Query string: Check the results log: what was the call for CCC(=O)N[C@@H]1CCc2cccc(OC)c2C1 ?
Result string: inactive

Query string: Check the results log: what was the call for COc1ccc(-c2nn(-c3ccccc3)cc2/C=N/NC(=O)c2ccc3c(c2)OCO3)cc1 ?
Result string: inactive

Query string: Check the results log: what was the call for CC(C)CCn1c(Oc2ccccc2Cl)nc2c1c(=O)n(C)c(=O)n2C ?
Result string: inactive

Query string: Check the results log: what was the call for CS(=O)(=O)Nc1ccc([N+](=O)[O-])cc1OC1CCCCC1 ?
Result string: active

Query string: Check the results log: what was the call for Cc1cccc(CNc2ncnc3ccc(-c4cccnc4)cc23)c1 ?
Result string: active

Query string: Check the results log: what was the call for C[C@@H](CC(=O)O)[C@@H](N)C(=O)O ?
Result string: inactive

Query string: Check the results log: what was the call for O=C(O)CC[C@@H](NC(=O)c1ccccc1C(=O)O)C(=O)O ?
Result string: inactive

Query string: Check the results log: what was the call for O=[n+]1c2c(n([O-])c3cc(F)c(F)cc31)CCCC2 ?
Result string: inactive

Query string: Check the results log: what was the call for CC(C)(CNC(=O)c1ccc([N+](=O)[O-])c(Cl)c1)CNC(=O)c1ccc([N+](=O)[O-])c(Cl)c1 ?
Result string: active

Query string: Check the results log: what was the call for C[C@@H](Cc1ccccc1)Nc1ncnc2c1ncn2[C@@H]1O[C@@H](CO)[C@H](O)[C@@H]1O ?
Result string: inactive

Query string: Check the results log: what was the call for Cc1ccccc1-n1nc2c(c1NC(=O)c1c(-c3ccccc3Cl)noc1C)CSC2 ?
Result string: inactive

Query string: Check the results log: what was the call for CCNc1ncc2nc(-c3ccc(Cl)cc3)c(=O)n(C3CC3)c2n1 ?
Result string: inactive

Query string: Check the results log: what was the call for CSC1(SC2=NCCN2)SC2(NCCN2)S1 ?
Result string: active

Query string: Check the results log: what was the call for CN(C)c1ccc(NC(=O)c2cccc(N3C(=O)C4C5C=CC(C5)C4C3=O)c2)cc1 (stereo not drawn) ?
Result string: inactive

Query string: Check the results log: what was the call for O=[N+]([O-])c1ccc(C2CCCC/C2=N\OCc2cccc(F)c2)c([N+](=O)[O-])c1 (stereo not drawn) ?
Result string: inactive

* * *

# measuredTarget: Cytochrome P450 2D6 (Homo sapiens) (UniProt P10635)
# protocolDescription: Cytochrome panel assay with activity outcomes
# assaySetup: recombinant CYP, pro-luciferin dealkylation, luminescence, p450-cyp2d6; series mostly up to 57.1 µM
About 2,600 (16%) of roughly 16,000 compounds were called active. About 20% were inconclusive and are not listed. The call rests on the fitted dose curve; in most records, active means well fitted curve in the direction sought with a large enough effect; inconclusive means small, poorly fitted or top-dose-only effect, or effect the other way; inactive means no such curve, though single readings can be large or run the other way. The list is a sample of the results.
Respond with a class label; see True for active, False for inactive

molecule | group
NCCNC(=O)c1ncsc1-c1cccc(F)c1 | False
CC1CSc2nc3sc4c(c3c(=O)n21)CCCC4 (stereo not drawn) | False
COc1ccc(-n2c(=O)c(-c3cccs3)nc3cnc(N4CCN(C)CC4)nc32)cc1 | False
CCOc1ccc(OCC)c(-c2c(=O)n(OCc3ccc(C(C)(C)C)cc3)c3ccccc3[n+]2[O-])c1 | False
CC(CCc1ccccc1)NS(=O)(=O)c1ccccc1 (stereo not drawn) | False

Query string: Check the results log: what was the call for COc1ccc(-n2c(=O)c(-c3cccc(Cl)c3)nc3cncnc32)cc1 ?
Result string: False

Query string: Check the results log: what was the call for CCCS(=O)(=O)N1CCCC(C(=O)N2CCOCC2)C1 (stereo not drawn) ?
Result string: False

Query string: Check the results log: what was the call for COc1cccc(C(c2c(C)[nH]n(-c3ccccc3)c2=O)c2c(C)[nH]n(-c3ccccc3)c2=O)c1O ?
Result string: False

Query string: Check the results log: what was the call for CCOC(=O)c1cnn(-c2ccccc2)c1-n1cccc1C(=O)C(=O)Nc1ccccc1C(F)(F)F ?
Result string: False

Query string: Check the results log: what was the call for CCOc1cc(/C=C2/SC(=O)N(CC(=O)N3CCc4ccccc4C3)C2=O)ccc1OCC(=O)O ?
Result string: False

* * *

# measuredTarget: Cytochrome P450 2D6 (Homo sapiens)
# protocolDescription: Cytochrome panel assay with activity outcomes
# assaySetup: recombinant CYP, pro-luciferin dealkylation, luminescence, p450-cyp2d6; series mostly up to 57.1 µM
# Description: The P450 gene superfamily is involved in the metabolism and clearance of xenobiotics. This assay used various human CYP P450 isozymes to measure the dealkylation of various pro-luciferin substrates to luciferin. The luciferin is then measured by luminescence after the addition of a luciferase detection reagent. […] Inhibitors and some substrates limit the production of luciferin, and decrease measured luminescence. […] 8, Detection, 1 sec, ViewLux luminescent read […]
Screen size: about 16,000 compounds; about 2,600 (16%) were called active. About 20% were inconclusive and are not listed. Calls follow the shape of the dose curve; as a rule, active = well fitted curve in the direction sought with a large enough effect; inconclusive = small, poorly fitted or top-dose-only effect, or effect the other way; inactive = no such curve, though single readings can be large or run the other way. A selection follows.
Respond with a class label; see active, inactive

compound | group
CS(=O)(=O)N1CCC[C@@]2(CCN(c3ccccc3)C2)C1 | inactive
Cc1nn(C)c(Cl)c1NC(=O)OCc1ccc(F)cc1 | inactive
Cc1ccc(/C(N)=N/OC(=O)Cc2cccs2)cc1 | inactive
COc1cc(CNC2CCCC2)cc(Cl)c1OCc1ccccc1Cl | active
O=C(O)[C@@H]1CCCNC1 | inactive
CC(C)(C)c1nc(SCC(=O)Nc2ccc(N3CCOCC3)cc2)c2ccccc2n1 | inactive
c1cncc(-c2cc(-n3ccnc3)ncn2)c1 | active
COc1ccc(N2C(N)=NC(N)=NC2(C)C)cc1 | active
Cc1cccc(NC(=O)NNC(=O)c2cc(-c3ccccc3Cl)nc3ccccc23)c1 | inactive
COC(=O)c1sccc1NC(=O)c1cc(-c2ccc(C)cc2)nc2ccccc12 | inactive

Query string: Check the results log: what was the call for CS(=O)(=O)N1CCC[C@@]2(CCN(C(c3ccccc3)c3ccccc3)C2)C1 ?
Result string: active

Query string: Check the results log: what was the call for CC1(C)N=C(N)N=C(N)N1c1cccc(OCc2cccc(N)c2)c1 ?
Result string: active
